Ref: PubChem BioAssay AID1159580

assay: chemical genetic growth profiling, strain panel (AID 1159580);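 also: tested at 20 µM; growth read once vehicle control cultures reached saturation at 30 °C; 1 = growth at the plate median or of vehicle wells; lower values mean less growth of the strain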; conditions: S. cerevisiae deletion strains, growth OD, strain NNK1
Hit rate of the full screen: of about 5,500 compounds, about 2,000 (36%) were called active. Another 18% or so got no clear call; they are omitted. Rule as the data show it: active = normalized growth mostly below about 0.91 (no sharp cut-off); inconclusive = no clear call, values can overlap the other calls; inactive = mostly above about 0.92. This is one part of the list.
Choose one outcome from this list and give only that: 1 (active), -1 (inactive)

Prompt: // return assay outcome for COc1cc(Br)cc(C=Nc2ccc(Sc3ccccc3)nc2Sc2ccccc2)c1O
Response: -1

Prompt: // return assay outcome for COCCCNC(=S)N/N=C\c1cc(Br)ccc1O
Response: -1

Prompt: // return assay outcome for Oc1c(Cl)cc(Cl)cc1C=Nc1ccc(Sc2ccccc2)nc1Sc1ccccc1
Response: -1

Prompt: // return assay outcome for O=C(Nc1ccccc1)Nc1ccc(Cl)cc1[N+](=O)[O-]
Response: -1

Prompt: // return assay outcome for FC(F)(F)c1ccc(N2CCc3ccccc3C2)c(NC(=S)Nc2cc(Cl)cc(Cl)c2)c1
Response: -1
